Assayed System: Dihydrofolate reductase (Rattus norvegicus)
Sequence (Q920D2 whole entry): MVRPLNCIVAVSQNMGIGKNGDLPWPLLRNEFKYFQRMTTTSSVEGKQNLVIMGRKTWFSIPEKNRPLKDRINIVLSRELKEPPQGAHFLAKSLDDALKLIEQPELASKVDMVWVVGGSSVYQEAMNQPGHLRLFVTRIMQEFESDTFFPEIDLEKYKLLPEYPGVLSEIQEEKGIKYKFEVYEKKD
Response field label takes T when IC50 is strictly below 1 µM and F in all other cases.

Field: below-cutoff. Rule: recorded IC50 strictly less than 1 µM. Subject: CCc1nc(N)nc(N)c1-c1ccc(Cl)c(/N=N/N(CCOC(C)=O)Cc2cccc(C)c2)c1
F

Check if IC50 falls below 1 µM for CCc1nc(N)nc(N)c1-c1ccc(Cl)c(/N=N/N(CCO)CCc2ccccc2)c1 .
F

API: query returns whether the compound falls strictly under 1 µM in IC50. Query: CCc1nc(N)nc(N)c1-c1ccc(Cl)c(/N=N/N(CCO)[C@@H](C)c2ccccc2)c1
F

Lab note: IC50 threshold 1 µM. Does this compound come in strictly under it? CCc1nc(N)nc(N)c1-c1ccc(Cl)c(/N=N/N(CCOC(C)=O)Cc2cccc3ccccc23)c1
T

Consider CCc1nc(N)nc(N)c1-c1ccc(Cl)c(/N=N/N(CCOC(C)=O)Cc2cccc(Cl)c2)c1 . Does its IC50 lie strictly below 1 µM?
F

----------
This listing pairs compounds with measured pIC50.
Method Notes: Inhibition of dihydrofolate reductase DHFR in Pneumocystis carinii.
Remember, pIC50 is on a log scale: it is -log10 of the molar concentration.

Fill in the blank: the reported pIC50 of CCc1nc(N)nc(N)c1-c1ccc(Cl)c(/N=N/N(C)C)c1 is ____.
5.55

Report pIC50 for CCc1nc(N)nc(N)c1-c1ccc(Cl)c(/N=N/N(CCOC(C)=O)Cc2cccc([N+](=O)[O-])c2)c1 please.
5.89

What measured pIC50 goes with CCc1nc(N)nc(N)c1-c1ccc(Cl)c(/N=N/N(CCOC(C)=O)Cc2ccccc2F)c1 ?
4.04

Please give the measured pIC50 for this compound: CCc1nc(N)nc(N)c1-c1ccc(Cl)c(/N=N/N(CCOC(C)=O)Cc2ccc(OC)c(OC)c2)c1
5.85

# lookup: pIC50 of CCc1nc(N)nc(N)c1-c1ccc(Cl)c(/N=N/N(CCOC(C)=O)Cc2ccc3ccccc3c2)c1
6.23

Give its pIC50 value. Item: CCc1nc(N)nc(N)c1-c1ccc(Cl)c(/N=N/N(CCOC(C)=O)Cc2ccc([N+](=O)[O-])cc2)c1
5.92

Return reported pIC50; argument: CCc1nc(N)nc(N)c1-c1ccc(Cl)c(/N=N/N(CCOC(C)=O)Cc2cccc3ccccc23)c1
7.28

For the compound CCc1nc(N)nc(N)c1-c1ccc(Cl)c(/N=N/N(CCCO)Cc2ccccc2)c1 , what pIC50 is on record?
6.17

Could you tell me which pIC50 is on file for CCc1nc(N)nc(N)c1-c1ccc(Cl)cc1 ?
5.44

----------
Entries and their IC50 values follow.
Assayed System: Bifunctional dihydrofolate reductase-thymidylate synthase (Toxoplasma gondii, UniProt Q07422)
Sequence (Q07422 whole entry): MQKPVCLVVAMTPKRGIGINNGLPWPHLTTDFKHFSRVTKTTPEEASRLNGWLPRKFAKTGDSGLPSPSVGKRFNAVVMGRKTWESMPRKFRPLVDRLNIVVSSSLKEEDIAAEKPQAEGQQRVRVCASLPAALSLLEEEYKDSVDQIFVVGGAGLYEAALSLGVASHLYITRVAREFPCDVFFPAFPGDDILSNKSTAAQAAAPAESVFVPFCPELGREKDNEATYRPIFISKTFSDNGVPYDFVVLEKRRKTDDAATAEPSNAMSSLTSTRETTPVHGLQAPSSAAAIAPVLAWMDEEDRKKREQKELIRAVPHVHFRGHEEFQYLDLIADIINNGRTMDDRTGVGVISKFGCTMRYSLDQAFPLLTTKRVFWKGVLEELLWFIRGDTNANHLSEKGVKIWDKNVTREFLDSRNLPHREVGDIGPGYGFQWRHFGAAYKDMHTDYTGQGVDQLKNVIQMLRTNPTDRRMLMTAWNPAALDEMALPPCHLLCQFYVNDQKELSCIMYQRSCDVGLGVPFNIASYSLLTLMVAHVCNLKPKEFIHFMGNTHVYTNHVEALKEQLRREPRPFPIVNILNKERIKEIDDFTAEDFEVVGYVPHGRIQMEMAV
Method Notes: Inhibitory activity against dihydrofolate reductase DHFR in Toxoplasma gondii.
Provide only the numeric value, understood in nM.

>>> result_number("CCc1nc(N)nc(N)c1-c1ccc(Cl)c(/N=N/N(CCOC(C)=O)Cc2ccc([N+](=O)[O-])cc2)c1")
850

Query (compound): CCc1nc(N)nc(N)c1-c1ccc(Cl)c(/N=N/N(CCOC(=O)C(C)C)Cc2ccccc2)c1 ; field requested: IC50
660

I'd like to know its IC50. The compound in question is CCc1nc(N)nc(N)c1-c1ccc(Cl)c(/N=N/N(CCOC(C)=O)Cc2ccccc2C)c1
830

I am curious: what IC50 value has been reported for CCc1nc(N)nc(N)c1-c1ccc(Cl)c(/N=N/N(CCOC(C)=O)Cc2cccc(F)c2)c1 ?
1250
